# experimental_target: EWSR1-C (GFP-EWSR1-C) (Homo sapiens, UniProt Q01844, T393A)
# Construct: C-terminal region 301-656 (contains RNA recognition motif 353-453), GFP fusion, overexpressed in HEK293T, lysate
# Sequence (Q01844 301-656 T393A): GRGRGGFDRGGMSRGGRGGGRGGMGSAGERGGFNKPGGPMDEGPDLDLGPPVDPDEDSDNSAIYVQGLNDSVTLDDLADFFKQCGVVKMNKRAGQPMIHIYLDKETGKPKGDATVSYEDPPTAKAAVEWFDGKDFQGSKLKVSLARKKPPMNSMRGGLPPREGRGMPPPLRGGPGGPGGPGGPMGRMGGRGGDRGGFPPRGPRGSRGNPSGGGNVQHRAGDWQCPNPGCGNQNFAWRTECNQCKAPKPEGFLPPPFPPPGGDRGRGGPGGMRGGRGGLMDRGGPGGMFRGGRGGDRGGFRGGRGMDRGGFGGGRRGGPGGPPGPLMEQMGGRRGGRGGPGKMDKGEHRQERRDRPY
# assay_explanation: microscale thermophoresis
# condition_context: EWSR1-C mutant; read-out: binding constants
attribute_measured: pKd
In plain terms, pKd is the concentration in mol/L turned into minus its base-10 logarithm.

Query block: Requested read-out: pKd. Entry: COC(=O)C[C@](O)(CCCC(C)(C)O)C(=O)O[C@@H]1C(OC)=C[C@]23CCCN2CCc2cc4c(cc2[C@H]13)OCO4 [Homoharringtonine]
Result block: 4.09
